Where do the numbers come from? From the supplement of paper PMC10567573.

B1: ADD1 (parent)
chain: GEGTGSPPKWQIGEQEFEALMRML

# Variants of: B1
# experimental_protocol: protein stability index of a GFP-peptide fusion (GPS, HEK-293T) (PSI 1-6); higher = more stable;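 note: lentivirally expressed fusions sorted by FACS into six bins by GFP to DsRed ratio, PSI derived from sequencing read proportions per bin multiplied by bin number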
# condition: c terminus: a fixed tail appended
Could you label it 1 if measured protein stability index is 3 or higher, and -1 otherwise?

G5W; -1

Given the entry G13N , answer whether its protein stability index meets or surpasses 3.
-1

Given the entry A19T , answer whether its protein stability index meets or surpasses 3.
1

Given the entry Q11R , answer whether its protein stability index meets or surpasses 3.
1

Given the entry K9D , answer whether its protein stability index meets or surpasses 3.
1
